# target.of.assay: Histamine H3 receptor (Rattus norvegicus)
# Sequence (Q9QYN8 whole entry): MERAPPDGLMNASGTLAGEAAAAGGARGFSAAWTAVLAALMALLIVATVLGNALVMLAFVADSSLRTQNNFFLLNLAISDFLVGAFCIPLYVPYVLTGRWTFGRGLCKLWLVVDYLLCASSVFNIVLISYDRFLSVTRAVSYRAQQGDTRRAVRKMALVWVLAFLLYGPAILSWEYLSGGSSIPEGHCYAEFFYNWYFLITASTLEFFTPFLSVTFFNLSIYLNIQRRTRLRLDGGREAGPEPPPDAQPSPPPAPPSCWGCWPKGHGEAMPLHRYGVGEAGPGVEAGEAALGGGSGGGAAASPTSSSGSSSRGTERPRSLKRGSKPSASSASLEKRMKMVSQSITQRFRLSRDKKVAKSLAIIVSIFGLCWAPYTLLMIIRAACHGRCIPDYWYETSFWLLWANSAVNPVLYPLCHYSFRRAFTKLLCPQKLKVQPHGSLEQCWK
# assay.details: Displacement of [125I]iodoproxyfan from rat recombinant histamine H3 receptor expressed in human SK-N-MC cells
// NB: equality with 20 nM counts as condition not met; only Ki strictly below is condition met

I wonder whether CC(C)N1CCOC(COc2cccc(CN3CCOCC3)c2)C1 (centres undefined) has Ki below 20 nM. Can you tell?
condition not met

For `c1cc(OC[C@@H]2CN(C3CCCC3)CCO2)ccc1CN1CCOCC1` , is the recorded Ki below the cut-off of 20 nM?
condition met

Bench note: check whether c1cc(CN2CCOCC2)cc(OCC2CN(C3CCC3)CCO2)c1 (centres undefined) shows Ki below 20 nM
condition not met

State whether 20 nM exceeds Ki recorded for `c1cc(OC[C@H]2CN(C3CCCC3)CCO2)ccc1CN1CCOCC1` .
condition not met

Just wondering, is Ki of c1cc(OCC2CN(C3CCCC3)CCO2)ccc1CN1CCCC1 (centres undefined) below 20 nM?
condition met

Does c1cc(OCC2CN(C3CCCC3)CCO2)ccc1CN1CCCCC1 (centres undefined) have Ki strictly under 20 nM?
condition met

Lab note: Ki threshold 20 nM. Does this compound come in strictly under it? CC(C)N1CCOC(COc2ccc(CN3CCOCC3)cc2)C1 (centres undefined)
condition not met

# check: Ki < 20 nM for c1cc(OCC2CN(C3CCC3)CCO2)ccc1CN1CCOCC1 (centres undefined)
condition not met

====

Kindly supply the reported Kb values for the records listed here.
# target.of.assay: UniProt:Q9QYN8
# assay.details: Antagonist activity rat recombinant histamine H3 receptor expressed in human SK-N-MC cells
# Assay type: functional, cell-based
# test.conditions: read-out: pA2 (converted)

Using known records, supply Kb for CC(C)N1CCOC(COc2cccc(CN3CCOCC3)c2)C1 (stereo not drawn)
251 nM

Supply recorded Kb for `c1cc(OC[C@H]2CN(C3CCCC3)CCO2)ccc1CN1CCOCC1` here.
43.7 nM

Please indicate Kb recorded for c1cc(CN2CCOCC2)cc(OCC2CN(C3CCC3)CCO2)c1 (stereo not drawn)
79.4 nM

Please report Kb for the following molecule: c1cc(OCC2CN(C3CCCC3)CCO2)ccc1CN1CCCCC1 (stereo not drawn)
1.55 nM

Using the record for `c1cc(OC[C@@H]2CN(C3CCCC3)CCO2)ccc1CN1CCOCC1` , state its measured Kb.
2.14 nM

Consider the molecule c1cc(OCC2CN(C3CCCC3)CCO2)ccc1CN1CCOCC1 (stereo not drawn) . State its measured Kb.
4.79 nM

Give the reported value of Kb for this record: c1cc(OCC2CN(C3CCC3)CCO2)ccc1CN1CCOCC1 (stereo not drawn)
19.1 nM

Item c1cc(OCC2CN(C3CCCC3)CCO2)ccc1CN1CCCC1 (stereo not drawn) : provide Kb
1.58 nM

====

Record form. Attribute: Kb. Fill in for each entry.
# target.of.assay: Histamine H3 receptor (Homo sapiens, UniProt Q9Y5N1)
# Sequence (Q9Y5N1 whole entry): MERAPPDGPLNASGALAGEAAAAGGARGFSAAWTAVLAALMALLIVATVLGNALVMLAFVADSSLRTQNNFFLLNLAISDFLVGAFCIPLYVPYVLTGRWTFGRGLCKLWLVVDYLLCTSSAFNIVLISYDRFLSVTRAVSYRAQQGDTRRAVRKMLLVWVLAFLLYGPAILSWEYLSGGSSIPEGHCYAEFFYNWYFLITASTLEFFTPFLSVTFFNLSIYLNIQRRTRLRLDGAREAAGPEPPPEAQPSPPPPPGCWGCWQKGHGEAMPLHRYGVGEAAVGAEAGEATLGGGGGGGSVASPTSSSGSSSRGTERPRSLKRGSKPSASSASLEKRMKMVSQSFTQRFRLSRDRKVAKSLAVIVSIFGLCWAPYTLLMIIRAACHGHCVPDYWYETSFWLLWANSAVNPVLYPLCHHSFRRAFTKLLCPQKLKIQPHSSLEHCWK
# assay.details: Antagonist activity at human recombinant histamine H3 receptor expressed in human SK-N-MC cells
# Assay type: functional, cell-based
# test.conditions: read-out: pA2 (converted)
Give your result in nM as a bare value.

Indicate the recorded Kb value for this compound: c1cc(OCC2CN(C3CCCC3)CCO2)ccc1CN1CCCCC1 (stereo not drawn)
0.148

Dear colleague, please send me the reported Kb for `c1cc(OC[C@H]2CN(C3CCCC3)CCO2)ccc1CN1CCOCC1` when you can.
7.94

Give me measured Kb, please, for this compound: c1cc(CN2CCOCC2)cc(OCC2CN(C3CCC3)CCO2)c1 (stereo not drawn)
14.1

Name the recorded Kb of the item c1cc(OCC2CN(C3CCCC3)CCO2)ccc1CN1CCOCC1 (stereo not drawn) in your answer.
0.955

Look up Kb of c1cc(OCC2CN(C3CCC3)CCO2)ccc1CN1CCOCC1 (stereo not drawn) and report it.
3.09

Given CC(C)N1CCOC(COc2cccc(CN3CCOCC3)c2)C1 (stereo not drawn) , respond with its Kb.
44.7

Please list Kb recorded for the compound c1cc(OCC2CN(C3CCCC3)CCO2)ccc1CN1CCCC1 (stereo not drawn)
0.331

Please look at this compound and report its Kb: `c1cc(OC[C@@H]2CN(C3CCCC3)CCO2)ccc1CN1CCOCC1`
0.38
